Provide the reported inhibition of each item.
Target: Insulin receptor-related protein (Homo sapiens) (UniProt P14616);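 also: each reported figure is the mean of the IRR inhibition readings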
Sequence (P14616 27-742 limits assumed): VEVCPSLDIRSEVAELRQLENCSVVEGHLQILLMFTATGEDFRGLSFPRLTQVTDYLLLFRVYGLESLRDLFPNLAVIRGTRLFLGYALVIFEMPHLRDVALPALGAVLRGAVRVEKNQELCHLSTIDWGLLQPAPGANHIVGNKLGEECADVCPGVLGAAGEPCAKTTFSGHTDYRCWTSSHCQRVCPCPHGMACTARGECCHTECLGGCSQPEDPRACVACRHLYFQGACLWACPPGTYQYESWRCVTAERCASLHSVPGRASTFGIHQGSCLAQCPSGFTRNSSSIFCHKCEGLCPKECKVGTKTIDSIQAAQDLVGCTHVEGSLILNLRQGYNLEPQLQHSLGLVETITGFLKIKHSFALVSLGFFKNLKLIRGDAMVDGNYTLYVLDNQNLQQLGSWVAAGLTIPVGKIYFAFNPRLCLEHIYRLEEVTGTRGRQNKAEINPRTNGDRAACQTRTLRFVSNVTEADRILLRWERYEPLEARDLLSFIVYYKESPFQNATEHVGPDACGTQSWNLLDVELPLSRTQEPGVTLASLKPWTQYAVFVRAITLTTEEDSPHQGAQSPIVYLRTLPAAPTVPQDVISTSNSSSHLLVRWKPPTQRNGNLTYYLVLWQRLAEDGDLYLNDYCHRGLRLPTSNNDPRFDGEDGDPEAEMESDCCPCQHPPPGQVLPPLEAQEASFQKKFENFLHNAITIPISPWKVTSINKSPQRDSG
Sequence (P14616 747-1297 limits assumed): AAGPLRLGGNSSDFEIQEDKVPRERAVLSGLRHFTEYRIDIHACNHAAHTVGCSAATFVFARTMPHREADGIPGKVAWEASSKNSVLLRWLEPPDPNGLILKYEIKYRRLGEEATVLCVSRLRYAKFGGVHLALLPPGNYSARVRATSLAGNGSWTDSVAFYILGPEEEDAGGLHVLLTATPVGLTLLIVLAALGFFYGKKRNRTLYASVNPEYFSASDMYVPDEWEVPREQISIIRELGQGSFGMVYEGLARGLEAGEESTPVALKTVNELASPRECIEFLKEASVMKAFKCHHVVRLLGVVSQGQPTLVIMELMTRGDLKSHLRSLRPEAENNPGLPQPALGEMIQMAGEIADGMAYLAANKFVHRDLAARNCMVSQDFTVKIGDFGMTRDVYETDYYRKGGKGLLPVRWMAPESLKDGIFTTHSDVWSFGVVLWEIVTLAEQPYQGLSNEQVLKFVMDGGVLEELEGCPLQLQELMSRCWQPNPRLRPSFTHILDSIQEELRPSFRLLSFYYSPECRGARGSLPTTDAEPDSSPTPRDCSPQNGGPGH
Conditions: at 1 µM
Provide the measurement as a number trailed by its unit.

Use these answered entries as a reference point.
                                test_smiles  quantity_measured  reported_value
0  Cc1nnc(-c2cccc(-c3ccc(C(=O)NCC4CC4)cc3)c2)o1         inhibition           3.22%
1  CS(=O)(=O)Nc1ccc(-c2cc(-c3ccccc3)cc(C(N)=O)c2N)cc1         inhibition           0.85%
2  CCCNc1cccc(-n2ncc3c(N/N=C/c4ccncc4)ncnc32)c1         inhibition           1.63%
3       COc1cc(Nc2ncc(-c3ccccc3)o2)cc(OC)c1         inhibition           2.43%
4  CCS(=O)(=O)c1ccc(OC)c(Nc2ncc(-c3cccc(C(C)=O)c3)o2)c1         inhibition           3.18%
5  OCCCNc1nccc(-c2c(-c3ccc(F)cc3)nn3cc(C(F)(F)F)ccc23)n1         inhibition           1.53%
6  Cc1c2ccc(N(C)c3ccnc(Nc4cccc(S(N)(=O)=O)c4)n3)cc2nn1C         inhibition           2.81%
7  O=C(O[C@H]1CN[C@H](C#Cc2cc3ncnc(Nc4ccc5c(ccn5Cc5cc(F)ccc5F)c4)c3s2)C1)N1CCOCC1         inhibition           2.01%

Hi team, please reply with inhibition for each item in this list.
1. CCS(=O)(=O)c1ccc(OC)c(Nc2ncc(-c3cccc(F)c3)o2)c1
2. Fc1ccc(Nc2nccc(-c3c(-c4ccc(C(F)(F)F)cc4)nn4ncccc34)n2)cc1F

1. 4.59%
2. 2.2%

###

Provide the reported inhibition of each item.
Molecular target: Serine/threonine-protein kinase PAK 6 (Homo sapiens) (UniProt Q9NQU5);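 also: values are mean percent inhibition of PAK6 kinase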
Sequence (Q9NQU5 whole entry, looked up): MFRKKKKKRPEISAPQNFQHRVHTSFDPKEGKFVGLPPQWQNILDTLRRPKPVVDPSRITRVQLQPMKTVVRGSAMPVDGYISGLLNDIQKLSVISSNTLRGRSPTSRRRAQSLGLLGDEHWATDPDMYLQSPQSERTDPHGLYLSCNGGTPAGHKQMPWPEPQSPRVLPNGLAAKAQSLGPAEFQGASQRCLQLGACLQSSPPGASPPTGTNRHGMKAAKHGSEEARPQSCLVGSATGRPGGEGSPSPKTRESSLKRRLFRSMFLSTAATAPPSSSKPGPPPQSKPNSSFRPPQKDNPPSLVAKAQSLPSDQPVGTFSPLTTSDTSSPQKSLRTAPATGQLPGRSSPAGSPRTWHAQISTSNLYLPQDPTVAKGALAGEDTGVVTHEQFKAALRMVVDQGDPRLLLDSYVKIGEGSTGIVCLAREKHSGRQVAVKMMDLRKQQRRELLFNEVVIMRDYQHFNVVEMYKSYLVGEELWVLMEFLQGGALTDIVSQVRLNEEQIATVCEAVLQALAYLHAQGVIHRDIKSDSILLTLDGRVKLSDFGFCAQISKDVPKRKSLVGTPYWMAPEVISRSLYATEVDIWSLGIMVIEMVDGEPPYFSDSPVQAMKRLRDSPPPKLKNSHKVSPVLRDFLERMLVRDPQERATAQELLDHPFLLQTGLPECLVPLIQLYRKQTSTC
Settings: at 1 µM
Provide the measurement as a number trailed by its unit.

>>> df
                                test_smiles  quantity_measured  reported_value
0    Cc1ccc(-c2cc3c(NC(=O)C4CC4)ncnc3o2)cc1         inhibition           1.82%
1  CS(=O)(=O)Nc1ccc(-c2ccc3c(NC(=O)C4CC4)n[nH]c3c2)cc1         inhibition           5.45%
2  COc1cc(N2CCN(C(C)C)CC2)ccc1Nc1nc(Nc2cccc3ncccc23)c2cc[nH]c2n1         inhibition          -4.19%
3  CS(=O)(=O)CCNCc1ccc(-c2ccc3ncnc(Nc4ccc(OCc5cccc(C(F)(F)F)c5)cc4)c3c2)o1         inhibition          -8.87%

Alright, here's another molecule for you.
Sample CN(c1ccc(NC(=O)NCCN2CCOCC2)cc1)c1ccnc(Nc2ccc(CS(C)(=O)=O)cc2)n1 — what was its inhibition? 9.1%

###

Molecular target: Serine/threonine-protein kinase Nek1 (Homo sapiens);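 also: mean percent inhibition of NEK1 kinase, from the GSK PKIS (published kinase inhibitor set) screening panel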
Settings: at 0.1 µM
quantity.measured: inhibition (%)
Answers are plain numbers, in %.

Use these answered entries as a reference point.
In [3]: df
Out[3]:
                                test_smiles  unit_abbrev  reported_value
0  CS(=O)(=O)CCNCc1ccc(-c2ccc3ncnc(Nc4ccc(OCc5ccccc5)cc4)c3c2)o1            %            2.22
1  CN(C)CCNC(=O)Nc1ccc(N(C)c2ccnc(Nc3ccc(CS(C)(=O)=O)cc3)n2)cc1            %            0.66
2  CCN1CCC(C(=O)Nc2n[nH]c3nnc(-c4cccc(F)c4F)cc23)CC1            %           -1.35

Hi team, please reply with inhibition for each item in this list.
1. CS(=O)(=O)Nc1ccc(-c2cc(-c3ccccc3)cc(C(N)=O)c2N)cc1
2. NC(=O)c1ccc2c(-c3ccnc(NCCCO)n3)c(-c3ccc(F)cc3)nn2c1
3. c1cnn2ncc(-c3ccnc(NCCCN4CCOCC4)n3)c2c1

1: 1.84; 2: 2.6; 3: 1.91

The reported measurements were obtained from ChEMBL document CHEMBL1961873.
